- method.description: inhibitors of the yeast RAM network, pilot screen, dse1pr::URA3 reporter, 5-FOA selection (AID 869);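 further: 0% = DMSO wells with no growth and 100% = 10 µM 1-NA-PP1 with full growth; RAM network block rescues cells from 5-FOA so hits raise OD615 growth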
- test.parameters: S. cerevisiae dse1pr::URA3 5-FOA growth, OD615, 2 d; at 10 µM; stronger effect = higher value; strain carries analog-sensitive mutant Cbk1 kinase
The source made the active and inactive calls.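 How the source made its calls: active means inhibition over a set limit, the all-compound mean plus 3 SD, in both replicate runs; inconclusive means over that limit in just one replicate run; inactive means at or under that limit in both runs.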

| compound | inhibition |
| --- | --- |
| C(#Cc1ccc(C#CCN2CCOCC2)cc1)CN1CCOCC1 | 1.15% (inactive) |
| COc1cccc(-n2c(Cc3cc(=O)[nH]c(=O)[nH]3)nnc2SCC(=O)NC2CCCCC2)c1 | 1.86% (inactive) |
| COc1ccc(C2SCC(C(=O)O)N2C(C)=O)cc1OC (configuration not stated) | 1.33% (inactive) |
| CC(C)NC(=O)NC(=O)COc1ncnc2sccc12 | 1.22% (inactive) |
| COC(=O)c1ccc2[nH]c(C)cc(=O)c2c1 | 1.61% (inactive) |
| CCSC1=C(C#N)C(c2ccc(C)s2)CC(=O)N1 (configuration not stated) | 0.425% (inactive) |
| Cc1ccc2oc(=O)n(CCOc3ccccc3Cl)c2c1 | 0.955% (inactive) |
| Cc1ccc(N2CN=c3s/c(=C\c4ccccn4)c(=O)n3C2)cc1 | -0.31% (inactive) |
| Cc1nc(N2CCN(C)CC2)c2sc(=S)n(-c3ccccc3)c2n1 | 1.31% (inactive) |
| CCCC(=O)Nc1ccc(N2CCCCC2)cc1 | 3.02% (inactive) |
| CC(C)N(Cc1nc(-c2ccc(Cl)cc2)no1)C(=O)CCCN1C(=O)c2ccccc2C1=O | 1.4% (inactive) |
| CCOC(=O)NCc1ccc2[nH]c(C)cc2c1 | -0.465% (inactive) |

Data origin: PubChem BioAssay
